Every entry's value here was drawn from ChEMBL document CHEMBL4477215.

Test: Fraction unbound in human plasma
Assay type: ADME, cell-free
Readout Kind: fraction unbound
Simply state the number, no unit and no words.

Cc1cn2cc(-c3cc(=O)n4cc(N5CCN(C)CC5)ccc4n3)cc(C)c2n1 :: 0.11

Documented fraction unbound of Cc1cn2cc(-c3cc(=O)n4cc(N5CCN(C)CC5)ccc4n3)cc(F)c2n1 : 0.22

Documented fraction unbound of CCc1nc(C)cn2nc(-c3cc(=O)n4cc(C5CCN(C)CC5)cc(C)c4n3)cc12 : 0.13

---

Test: Half life in Cynomolgus monkey at 1 mg/kg, po
Type: ADME, organism-based, Macaca fascicularis
Conditions: in vivo
Reported values of half-life for individual entries
Express your answer in h, writing the number without its unit.

Cc1cn2cc(-c3cc(=O)n4cc(N5CCN(C)CC5)ccc4n3)cc(C)c2n1 :: 8

Documented half-life of Cc1cn2cc(-c3cc(=O)n4cc(N5CCN(C)CC5)ccc4n3)cc(F)c2n1 : 2.9

---

Reported values of fold change (FC) for individual entries
Assay: Mutagenicity in Salmonella typhimurium TA102 assessed as increase in revertant colonies after 2 days in presence of rat liver S9 fraction by Ames test relative to control
Assay type: toxicity
Details: salmonella enterica subsp. enterica serovar typhimurium, s9, 48 h

Answered examples (3):
CN1CCN(c2ccc3nc(-c4ccc5c(c4)ncn5C)cc(=O)n3c2)CC1 :: < 1.5
Cc1nc2ccc(-c3cc(=O)n4cc(N5CCN(C)CC5)ccc4n3)cc2o1 :: < 1.5
Cc1nc2c(F)cc(-c3cc(=O)n4cc(N5CCNCC5)ccc4n3)cc2o1 :: < 1.5

Documented fold change (FC) of Cc1cn2cc(-c3cc(=O)n4cc(N5CCN(C)CC5)ccc4n3)ccc2n1 : < 1.5

---

Species on record: Homo sapiens
Assay: Inhibition of mRNA splicing of SMN2 exon 7 in GM03813 fibroblasts derived from human SMA type 1 patient after 24 hrs by RT-qPCR analysis
Reported values of EC1.5 for individual entries

Cc1cn2nc(-c3cc(=O)n4cc(C5CCN(C)CC5)cc(C)c4n3)cc2c(C)n1 :: 57 nM

Documented EC1.5 of Cc1nc2c(F)cc(-c3cc(=O)n4cc(N5CCN(C)CC5)ccc4n3)cc2o1 : 3 nM

Documented EC1.5 of Cc1cn2cc(-c3cc(=O)n4cc(N5CCN(C)CC5)ccc4n3)cc(C)c2n1 : 7 nM

Documented EC1.5 of Cc1nc2c(F)cc(-c3cc(=O)n4cc(N5CCNCC5)ccc4n3)cc2o1 : 1 nM

---

Assay: Mutagenicity in Salmonella typhimurium TA102 assessed as increase in revertant colonies after 2 days in presence of rat liver S9 fraction by Ames test relative to control
Format: toxicity
Conditions: salmonella enterica subsp. enterica serovar typhimurium, s9, 48 h
Readout Kind: fold change (FC)

Answered examples (2):
Cc1nc2c(F)cc(-c3cc(=O)n4cc(N5CCN(C)CC5)ccc4n3)cc2o1 :: < 1.5
CN1CCN(c2ccc3nc(-c4ccc5nccn5c4)cc(=O)n3c2)CC1 :: < 1.5

Documented fold change (FC) of Cc1nc2ccc(-c3cc(=O)n4cc(N5CCN(C)CC5)ccc4n3)cn2n1 : < 1.5
